Cited source for all entries: patent US20110287512

binding signal (normalized ELISA) values, listed per item
Test system: ZFP7263 linker TPLCQRPMKQKP (artificial)
Write the number on its own, no unit after it.

Record for TTAGCCACTCTGACTGGAAGTGTATC (double strand) [7263 target gap AC] under target or system ZFP7263 linker TPLCQRPMKQKP (artificial): binding signal (normalized ELISA) reported as 0.08

Value sought: binding signal (normalized ELISA), system ZFP7263 linker TPLCQRPMKQKP (artificial), item TTAGCCACTCTGATGGAAGTGTATC (double strand) [7263 target gap A] . Result: 1.82

I looked up TTAGCCACTCTGGTGGAAGTGTATC (double strand) [7263 target gap G] and its binding signal (normalized ELISA) for ZFP7263 linker TPLCQRPMKQKP (artificial) was 3.44

The reported ZFP7263 linker TPLCQRPMKQKP (artificial) binding signal (normalized ELISA) of TTAGCCACTCTGCTTGGAAGTGTATC (double strand) [7263 target gap CT] is 0.02

Item: TTAGCCACTCTGCTGGAAGTGTATC (double strand) [7263 target gap C] | System: ZFP7263 linker TPLCQRPMKQKP (artificial) | binding signal (normalized ELISA): 1.28

Value (binding signal (normalized ELISA), ZFP7263 linker TPLCQRPMKQKP (artificial)) for record TTAGCCACTCTGATTGGAAGTGTATC (double strand) [7263 target gap AT] = 0.05
